- Measured On: PDHK1 (Homo sapiens (Human), UniProt Q15118)
- Sequence (Q15118 29-436): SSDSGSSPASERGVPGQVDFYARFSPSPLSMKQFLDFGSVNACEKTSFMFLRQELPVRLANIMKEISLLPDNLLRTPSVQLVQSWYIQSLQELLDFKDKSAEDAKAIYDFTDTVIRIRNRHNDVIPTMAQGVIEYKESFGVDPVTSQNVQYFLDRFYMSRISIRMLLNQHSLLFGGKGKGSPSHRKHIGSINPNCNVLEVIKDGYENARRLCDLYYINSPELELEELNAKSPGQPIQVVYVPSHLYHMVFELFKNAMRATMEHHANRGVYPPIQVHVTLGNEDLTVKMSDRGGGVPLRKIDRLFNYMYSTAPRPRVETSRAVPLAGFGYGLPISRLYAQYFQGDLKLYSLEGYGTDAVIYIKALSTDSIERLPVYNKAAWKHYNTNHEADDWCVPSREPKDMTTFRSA
- Assay Remarks: PDHK1 enzymatic assay (AlphaScreen, phosphorylation of PDHE1 S293)
- Assay type: biochemical
- Stated Conditions: 1 nM PDHK1, 25 nM PDHE1, 20 μM ATP, 30° C. for 45 minutes
- Excerpt: Pyruvate dehydrogenase complex (PDHc) is an enzyme that catalyzes the reaction of pyruvate and a lipoamide to give the acetylated dihydrolipoamide and carbon dioxide. PDHc has three subunits E1, E2 and E3. E1 has 3 serine phosphorylation sites S293, S232, S300. If E1 was phosphorylated, PDH will be inactivated. PDHK can phosphorylate PDH protein (also named PDHE1) in PDH complex (PDC) to inactivate it.
Measured Metric: Enzymatic IC50 against PDHK1
Write your answer as a measured quantity: the number, then the unit.

Please review the following examples before continuing.
- CCNc1cc(F)cc2c1NC(=O)C2(C)N1CCC[C@@H](Nc2ccc(S(=O)(=O)F)cn2)C1 (stereo partly shown): 0.035 µg/mL
- CCNc1cc(F)cc2c1NC(=O)C2(C)N1CCC[C@@H](Nc2ccc(OS(=O)(=O)F)cc2)C1 (stereo partly shown): 0.135 µg/mL
- CCNc1cc(F)cc2c1NC(=O)C2(C)N1CC[C@H](c2ccccc2)[C@@H](Nc2ccc(C#N)nc2)C1 (stereo partly shown): 0.037 µg/mL

Query compound follows.
# Enzymatic IC50 against PDHK1 of CCNc1cc(F)cc2c1NC(=O)C2(C)N1CCC[C@@H](Cc2ccc(C(N)=O)cc2)C1 (stereo partly shown) = 0.143 µg/mL

---

Reported Enzymatic IC50 against PDHK1 by item:
- Measured On: PDHK1 (Homo sapiens (Human))
- Assay Remarks: PDHK1 enzymatic assay (AlphaScreen, phosphorylation of PDHE1 S293)
- Format: biochemical
- Stated Conditions: 1 nM PDHK1, 25 nM PDHE1, 20 μM ATP, 30° C. for 45 minutes
Record the value in µg/mL, omitting the unit from your answer.

Please review the following examples before continuing.
• CCNc1cc(F)cc2c1NC(=O)C2(CC)N1CCC[C@@H](N(C(C)=O)c2ccc(C#N)nc2)C1 (stereo partly shown) = 0.142
• CCNc1cc(F)cc2c1NC(=O)C2(C)N1CCC[C@@H](Nc2ccc(C#N)nn2)C1 (stereo partly shown) = 0.047
• CCNc1cc(F)cc2c1NC(=O)C2(C)N1CCC[C@@H](NC(=O)c2cccc(OS(=O)(=O)F)c2)C1 (stereo partly shown) = 0.022
• CCNc1cc(F)cc2c1NC(=O)C2(C)N1CCC[C@H](Nc2ccc(C(=O)O)nc2)C1 (stereo partly shown) = 0.059
• CCNc1cc(F)cc2c1NC(=O)C2(C)N1CC[C@H](c2ccccc2Oc2ccc(C#N)cc2)[C@@H](NC(C)=O)C1 (stereo partly shown) = 0.03
• CCNc1cc(F)cc2c1NC(=O)[C@]2(C)N1CCC[C@@H](Oc2ccc(S(=O)(=O)F)cc2)C1 = 0.036

# Enzymatic IC50 against PDHK1 of CCNc1cc(F)cc2c1NC(=O)C2(C)N1CCC[C@@H](Nc2cccc(OS(=O)(=O)F)c2)C1 (stereo partly shown) = 0.197

# Enzymatic IC50 against PDHK1 of CCNc1cc(F)cc2c1NC(=O)C2(C)N1CC[C@H](F)[C@@H](Nc2ccc(C#N)nc2)C1 (stereo partly shown) = 0.025

# Enzymatic IC50 against PDHK1 of CCNc1cc(F)cc2c1NC(=O)C2(C)N1CCC[C@@H](NC(=O)C2CCN(C#N)CC2)C1 (stereo partly shown) = 0.026

---

- Measured On: PDHK1 (Homo sapiens (Human))
- Assay Remarks: PDHK1 enzymatic assay (AlphaScreen, phosphorylation of PDHE1 S293)
- Type: biochemical
- Stated Conditions: 1 nM PDHK1, 25 nM PDHE1, 20 μM ATP, 30° C. for 45 minutes
Rule: Enzymatic IC50 against PDHK1 of 0.02 µg/mL or more gives Criterion met; anything lower gives Criterion not met.

Consider the worked cases shown below.
- CCNc1cc(F)cc2c1NC(=O)C2(C)N1CCC[C@@H](NC(=O)C2CC3(C2)CN(C(=O)CCl)C3)C1 (stereo partly drawn): Criterion not met
- CCNc1cc(F)cc2c1NC(=O)C2(C)N1C[C@@H](C)C[C@@H](Nc2ccc(C#N)nc2)C1 (stereo partly drawn): Criterion not met
- CCNc1cc(F)cc2c1NC(=O)C2(C)N1C[C@@H](F)C[C@@H](Nc2ccc(C#N)nc2)C1 (stereo partly drawn): Criterion not met

Quick check: does CCNc1cc(F)cc2c1NC(=O)C2(C)N1CCC[C@@H](N(C)c2ccc(C(N)=O)nc2)C1 (stereo partly drawn) have Enzymatic IC50 against PDHK1 greater than or equal to 0.02 µg/mL?
Criterion not met

Quick check: does CCNc1cc(F)cc2c1NC(=O)C2(C)N1CCC[C@@H](Nc2cnc(C#N)cn2)C1 (stereo partly drawn) have Enzymatic IC50 against PDHK1 greater than or equal to 0.02 µg/mL?
Criterion met

---

- Measured On: PDHK1 (Homo sapiens (Human), UniProt Q15118)
- Assay Remarks: PDHK1 enzymatic assay (AlphaScreen, phosphorylation of PDHE1 S293)
- Type: biochemical
- Stated Conditions: 1 nM PDHK1, 25 nM PDHE1, 20 μM ATP, 30° C. for 45 minutes
Reported Enzymatic IC50 against PDHK1 by item:
Record the value in µg/mL, omitting the unit from your answer.

Please review the following examples before continuing.
* CCNc1cc(F)cc2c1NC(=O)C2(C)N1C[C@H](F)C[C@@H](Nc2ccc(C#N)nc2)C1 (stereo partly shown) | 0.011
* CCNc1cc(F)cc2c1NC(=O)C2(C)N1CCC[C@@H](Nc2cnc(C#N)c(Cl)c2)C1 (stereo partly shown) | 0.024
* CCNc1cc(F)cc2c1NC(=O)C2(C)N1CCC[C@@](C)(Nc2ccc(C#N)nc2)C1 (stereo partly shown) | 0.049
* CCNc1cc(F)cc2c1NC(=O)C2(C)N1CCC[C@@H](Nc2ccc(OS(=O)(=O)F)nc2)C1 (stereo partly shown) | 0.068
* CCNc1cc(F)cc2c1NC(=O)C2(C)N1CCC[C@@H](Nc2ccc(C#N)cn2)C1 (stereo partly shown) | 0.007
* CCNc1cc(F)cc2c1NC(=O)C2(C)N1CCC[C@@H](Nc2ccc(C#N)c(O)c2)C1 (stereo partly shown) | 0.015

Query molecule follows.
# Enzymatic IC50 against PDHK1 of CCNc1cc(F)cc2c1NC(=O)C2(C)N1CCC[C@@H](Cc2ccc(C(=O)O)cc2)C1 (stereo partly shown) = 0.046
